Molecular target: T1, truncated wild type EGFR 1-525 (EGFR1 (1-525)-SRGPF-Myc-NMHTG-6His) (human, UniProt P00533 25-525)
T1 construct: the signal peptide is left out; not shown: Myc tag
Experiment: SPR (Biacore), antibody captured via anti-human Fc, antigen injected
Reported koff values are given for each entry in this list.
measured attribute: koff (s⁻¹)

# binder, measured attribute, unit symbol, endpoint value
measured = [
    ("Antibody J (AbJ) (antibody, V domains shown, Full length IgG1) VH: EVQLQESGPGLVKPSQTLSLTCTVSGYSIGKDFAWNWIRQPPGKGLEWMGYISYSGNTRYQPSLKSRITISRDTSKNQFFLKLNSVTAADTATYYCVTASRGLPYWGQGTLVTVSS VL: DIQMTQSPSSMSVSVGDRVTITCHSSQDITYNIGWLQQKPGKSFKGLIYHGANLDDGVPSRFSGSGSGTDYTLTISSLQPEDFATYYCVQYDEFPWTFGGGTKLEIK", "koff", "s⁻¹", "8.27e-05"),
    ("Antibody M (AbM) (antibody, V domains shown, Full length IgG1) VH: EVQLQESGPGLVKPSQTLSLTCTVSGYSIGRDFAWNWIRQPPGKGLEWMGYISYNGNTRYQPSLKSRITISRDTSKNQFFLKLNSVTAADTATYYCVTASRGFPYWGQGTLVTVSS VL: DIQMTQSPSSMSVSVGDRVTITCHSSQDITYNVGWLQQKPGKSFKGLIYHGSNLDHGVPSRFSGSGSGTDYTLTISSLQPEDFATYYCVQYDDFPWTFGGGTKLEIK", "koff", "s⁻¹", "2.26e-05"),
    ("Antibody H (AbH) (antibody, V domains shown, Full length IgG1) VH: EVQLQESGPGLVKPSQTLSLTCTVSGYSIGKDFAWNWIRQPPGKGLEWMGYISYNGNTRYQPSLKSRITISRDTSKNQFFLKLNSVTAADTATYYCVTASRGLPYWGQGTLVTVSS VL: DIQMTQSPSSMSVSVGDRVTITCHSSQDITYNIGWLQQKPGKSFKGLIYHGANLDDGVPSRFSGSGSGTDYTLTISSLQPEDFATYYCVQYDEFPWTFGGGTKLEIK", "koff", "s⁻¹", "4.07e-05"),
]
